target: EGFR (Homo sapiens); construct: endogenous in cells; host or cells: A431 cells (lysate, captured with SUMO1 anti-EGFR antibody); assay: Biochemical EGFR Assay; set-up: concentration or dose not given beside the values
Sequence (P00533 25-1210): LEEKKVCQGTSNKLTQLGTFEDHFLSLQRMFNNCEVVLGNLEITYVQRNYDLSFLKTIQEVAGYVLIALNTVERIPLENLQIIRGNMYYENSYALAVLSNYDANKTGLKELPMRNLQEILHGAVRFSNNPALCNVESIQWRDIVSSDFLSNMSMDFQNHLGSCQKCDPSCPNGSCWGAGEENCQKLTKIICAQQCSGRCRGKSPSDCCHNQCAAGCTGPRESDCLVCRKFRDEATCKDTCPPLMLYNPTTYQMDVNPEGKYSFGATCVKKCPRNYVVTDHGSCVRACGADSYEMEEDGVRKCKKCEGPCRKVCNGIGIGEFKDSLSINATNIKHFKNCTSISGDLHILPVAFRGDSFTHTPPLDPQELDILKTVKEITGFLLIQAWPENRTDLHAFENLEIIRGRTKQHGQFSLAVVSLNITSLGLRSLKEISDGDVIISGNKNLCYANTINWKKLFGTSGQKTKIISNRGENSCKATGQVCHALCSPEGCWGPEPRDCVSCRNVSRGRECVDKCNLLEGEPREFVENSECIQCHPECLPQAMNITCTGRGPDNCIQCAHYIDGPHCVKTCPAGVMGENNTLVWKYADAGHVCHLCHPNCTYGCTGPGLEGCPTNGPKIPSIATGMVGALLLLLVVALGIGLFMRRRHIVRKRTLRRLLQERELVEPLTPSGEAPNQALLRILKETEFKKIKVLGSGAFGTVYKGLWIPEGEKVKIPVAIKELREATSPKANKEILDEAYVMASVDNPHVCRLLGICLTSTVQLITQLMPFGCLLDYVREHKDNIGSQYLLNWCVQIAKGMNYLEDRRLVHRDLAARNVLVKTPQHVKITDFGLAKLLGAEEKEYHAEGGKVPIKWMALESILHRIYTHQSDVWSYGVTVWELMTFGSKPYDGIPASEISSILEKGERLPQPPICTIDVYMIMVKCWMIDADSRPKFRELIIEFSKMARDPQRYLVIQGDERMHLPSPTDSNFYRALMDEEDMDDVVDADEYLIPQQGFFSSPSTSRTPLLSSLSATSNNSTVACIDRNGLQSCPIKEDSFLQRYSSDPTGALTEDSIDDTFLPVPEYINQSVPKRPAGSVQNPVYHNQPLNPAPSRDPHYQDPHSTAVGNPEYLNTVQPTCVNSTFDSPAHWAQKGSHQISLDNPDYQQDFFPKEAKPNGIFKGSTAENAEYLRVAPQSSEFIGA
# key: entry, value: Biochem EGFR % Inhibition (P.167)
measurement_kind: Biochem EGFR % Inhibition (P.167) (%)

>>> df
                               line_notation                   measurement_kind  observed_result
 0  CNS(=O)(=O)c1ccc2c(c1)C(=Cc1cccc(C)c1)C(=O)N2  Biochem EGFR % Inhibition (P.167)             24.9
 1  O=C1Nc2ccc(S(=O)(=O)Nc3ccc(C(F)(F)F)cc3)cc2C1=Cc1ccc(F)c(F)c1  Biochem EGFR % Inhibition (P.167)             18.9
 2  Cc1c(Br)cc(Br)c2c1C(=C1C(=O)Nc3ccccc31)C(=O)N2  Biochem EGFR % Inhibition (P.167)             −0.1
 3  Cc1cc(C=C2C(=O)Nc3c(Br)cc(Br)c(C)c32)[nH]n1  Biochem EGFR % Inhibition (P.167)            −30.2
 4  CNS(=O)(=O)c1ccc2c(c1)C(=Cc1ccc(Cl)cc1Cl)C(=O)N2  Biochem EGFR % Inhibition (P.167)             46.5
 5  Cc1c(Br)cc(Br)c2c1C(=Cc1cc([N+](=O)[O-])ccc1O)C(=O)N2  Biochem EGFR % Inhibition (P.167)             −3.1
 6  Cc1cc(C=C2C(=O)Nc3c(Br)cc(Br)c(C)c32)ccc1O  Biochem EGFR % Inhibition (P.167)            −11.8
 7          O=C1Nc2ccc(I)cc2C1=Cc1cccc(F)c1O  Biochem EGFR % Inhibition (P.167)             19.3
 8       O=C1Nc2ccc(CCCl)cc2C1=Cc1cccc(F)c1O  Biochem EGFR % Inhibition (P.167)             33.7
 9  COc1cc(C)cc(O)c1C=C1C(=O)Nc2c(Br)cc(Br)c(C)c21  Biochem EGFR % Inhibition (P.167)              0.3
10  Cc1c(Br)cc(Br)c2c1C(=Cc1ccc(Br)cc1)C(=O)N2  Biochem EGFR % Inhibition (P.167)             33.4
11  O=C1Nc2ccc(S(=O)(=O)N3CCOCC3)cc2C1=Cc1cc(F)cc(F)c1  Biochem EGFR % Inhibition (P.167)             10.6
12  Cc1c(Br)cc(Br)c2c1C(=Cc1cccc(Br)c1)C(=O)N2  Biochem EGFR % Inhibition (P.167)            −38.1
13  CCc1c(C)[nH]c(C=C2C(=O)Nc3c(Br)cc(Br)c(C)c32)c1C  Biochem EGFR % Inhibition (P.167)              7.9
14  O=C1Nc2ccc(S(=O)(=O)Nc3ccc(C(F)(F)F)cc3)cc2C1=Cc1ccc(Cl)cc1  Biochem EGFR % Inhibition (P.167)              2.0
15  Cc1c(Br)cc(Br)c2c1C(=Cc1cccc(C#N)c1)C(=O)N2  Biochem EGFR % Inhibition (P.167)             −8.0
16  CCOc1cccc(C=C2C(=O)Nc3ccc(S(=O)(=O)NC)cc32)c1O  Biochem EGFR % Inhibition (P.167)              5.2
17     O=C1Nc2c(Br)cc(Br)cc2C1=Cc1cccc(F)c1O  Biochem EGFR % Inhibition (P.167)              6.8
18     Cc1c(Br)ccc2c1C(=Cc1ccc(Br)s1)C(=O)N2  Biochem EGFR % Inhibition (P.167)             18.0
